The following molecules are listed with their measured NADPH fluorescence slope values.
- TARGET_DESC: Voltage-gated potassium channel subunit beta-2 (Rattus norvegicus) (UniProt P62483)
- Sequence (P62483 whole entry, looked up): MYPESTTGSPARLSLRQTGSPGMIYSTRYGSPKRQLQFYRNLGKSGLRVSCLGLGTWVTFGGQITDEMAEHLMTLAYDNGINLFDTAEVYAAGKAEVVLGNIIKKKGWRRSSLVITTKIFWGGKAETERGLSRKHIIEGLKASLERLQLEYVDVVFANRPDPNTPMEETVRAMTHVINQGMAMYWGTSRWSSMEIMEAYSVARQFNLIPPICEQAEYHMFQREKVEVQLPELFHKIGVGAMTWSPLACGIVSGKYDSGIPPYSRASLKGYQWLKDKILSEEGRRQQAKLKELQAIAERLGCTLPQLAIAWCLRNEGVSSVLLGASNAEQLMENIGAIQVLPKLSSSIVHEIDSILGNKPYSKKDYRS
- ASSAY_DETAILS: enhancers of rat Kvbeta2 NADPH turnover – biochemical, NADPH fluorescence, primary screen (AID 623);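 also: fluorescence intensity change per second fitted from 20 to 320 s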
- RECORDED_CONDITIONS: Recombinant KvBeta, NADPH fluorescence decrease slope, 10 min; at 10 µM; hits give low values
Form field (numeric): enter value without unit.

See these solved cases before continuing.
O=C(CN(c1ccccc1)S(=O)(=O)c1ccccc1)N1CCN(Cc2ccc3c(c2)OCO3)CC1 = -3.2e-05
Cc1ccc(S(=O)(=O)N(CC(=O)N2CCC(C(N)=O)CC2)c2cccc(C(F)(F)F)c2)cc1 = 5.5e-06

Fill blank: measured NADPH fluorescence slope of the molecule CCn1cc(/C=C(/C#N)S(=O)(=O)c2ccccc2)cn1 is ____.
-9.1e-05

Fill blank: measured NADPH fluorescence slope of the molecule O=C(COc1ccc2c(c1)OCO2)NC12CC3CC(CC(C3)C1)C2 is ____.
-4.1e-05

Fill blank: measured NADPH fluorescence slope of the molecule COC(=O)c1cn(-c2ccccc2)nc1C(=O)OC is ____.
-7.4e-05

Fill blank: measured NADPH fluorescence slope of the molecule O=c1c[n+]([O-])c2ccccc2n1OCc1ccccn1 is ____.
2.5e-05

Fill blank: measured NADPH fluorescence slope of the molecule CC(C)CCNC(=O)NC(=O)CN1C(=O)NC2(CCCCC2)C1=O is ____.
7.2e-05

Fill blank: measured NADPH fluorescence slope of the molecule Cn1c(C(=O)NCC2CCCO2)cc2c(=O)[nH]c3ccccc3c21 (stereo not given) is ____.
-5.9e-05

Fill blank: measured NADPH fluorescence slope of the molecule CCc1ccc2oc(-c3cc(N)ccc3Cl)nc2c1 is ____.
8.8e-06

Fill blank: measured NADPH fluorescence slope of the molecule Cc1nc2ccccc2c(=O)n1NC(=O)c1ccc(F)cc1Cl is ____.
-2.3e-05

Fill blank: measured NADPH fluorescence slope of the molecule CN(Cc1nc(-c2ccncc2)no1)S(=O)(=O)c1ccc(Br)cc1 is ____.
-3.3e-05

Fill blank: measured NADPH fluorescence slope of the molecule CCc1cccc2c(=O)c(C(=O)NCCN3CCOCC3)c[nH]c12 is ____.
-5.3e-05

Fill blank: measured NADPH fluorescence slope of the molecule O=C(CNS(=O)(=O)c1ccc(Br)s1)N1CCN(c2ncccn2)CC1 is ____.
-0.000106

Fill blank: measured NADPH fluorescence slope of the molecule COC(=O)c1ccccc1NC(=O)Nc1cc(C)cc(C)n1 is ____.
-2.5e-05

Fill blank: measured NADPH fluorescence slope of the molecule CC(=O)Nc1cccc(NC(=O)CSc2nnnn2C(C)C)c1 is ____.
-2.6e-05

Fill blank: measured NADPH fluorescence slope of the molecule C1COC(NC(C2CC2)C2CC2)=N1 is ____.
-4.8e-05

Fill blank: measured NADPH fluorescence slope of the molecule COc1ccc(NC(=O)Cn2nnc(-c3ccccc3N)n2)cc1OC is ____.
1e-05

Fill blank: measured NADPH fluorescence slope of the molecule COc1cc(C(=O)Nc2ccccn2)cc(OC)c1OC is ____.
-5.6e-05

Fill blank: measured NADPH fluorescence slope of the molecule Cc1nc(C)c(C(=O)Nc2ccc(Oc3ccccc3)cc2)o1 is ____.
-2.3e-05

Fill blank: measured NADPH fluorescence slope of the molecule CCCCC(=O)Nc1nn(CCC)c2nc3ccccc3cc12 is ____.
-3.3e-05

Cited source: PubChem BioAssay
